Source: patent US20210347873A1

# testedOn: mouse BLyS protein (mouse, UniProt Q9WU72 69-309)
# Sequence (Q9WU72 69-309): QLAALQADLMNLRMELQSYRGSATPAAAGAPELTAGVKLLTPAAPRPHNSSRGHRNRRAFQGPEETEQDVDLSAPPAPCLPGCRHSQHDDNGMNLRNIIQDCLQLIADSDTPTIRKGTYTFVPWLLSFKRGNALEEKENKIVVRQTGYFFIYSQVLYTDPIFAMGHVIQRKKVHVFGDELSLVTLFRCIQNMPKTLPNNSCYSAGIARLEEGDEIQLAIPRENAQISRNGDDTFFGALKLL
# testName: cell-based or functional assay
measurementKind: mouse B lymphocyte proliferation (OD450 nm), antibody 0 nM

111D10D6G3 (antibody, V domains shown, Mouse hybridoma monoclonal antibody purified on Protein G) VH: QVQLQQPGAELVKPGASVKMSCKASGYTFTRHWITWVKQRPGQGLEWIGDIFPGSGSINYNEKFKSEATLTVEKSSSTAYMQLSSLTSEDSAVYYCARGDVDVWGTGTTVTVSS VL: DIQMTQSPSSLSASLGERVSLTCRASQEIRGYLSWLQQKPNGTIKRLIYAASTLDSGVPKRFSATRSGSDFSLTISSLESEDFADYYCLQYASYPFTFGSGTKLEIK    2120 OD450 nm
20D1B6E9E5 (antibody, V domains shown, Mouse hybridoma monoclonal antibody purified on Protein G) VH: EVQLQQSVAELVRPGASVKLSCTASDFNIKNTYIHWVKQRPEQGLEWIGRIDPVNGNTKYAPKFQDKATIIVDTYSNTAYLQLSSLASEDTAVYYCARWPITTIVATDWYFDVWGTGTTVTVSS VL: DVLMTQTQLALPVRLGEQASISCRSSQSIVNSNGNTYLEWYLQKPGQSPKLLIYKVSNRFSGVPDRFSGSGSGTDFTLKISRVEAEDLGVYYCFQGSHVPWTFGGGTKLEIK    2260 OD450 nm
93C6F10D3 (antibody, V domains shown, Mouse hybridoma monoclonal antibody purified on Protein G) VH: EVQLVESGGGLVTPGGSLKLSCVASGFAFSTYGMSWVRQTPERRLEWVAYISGGGGSIYYPDSVKGRFTISRDNAKNILYLQMSSLKSEDTAMYHCTRHPDLLLRYDYALDHWGQGTSVTVSS VL: DIQMTQSPASLSASVGETVTITCRASENIHIYLAWYQQKQGKSPQLLVYNGKTLADGVPSRFSGSGSGTQYSLKINTLQPEDFGNYYCQHFWNSTWTFGGGTKLEIK    2310 OD450 nm

Could you now look at the following binder, please?
Param item = 8E7D9C7F5 (antibody, V domains shown, Mouse hybridoma monoclonal antibody purified on Protein G) VH: QVQLQQSGVELARPGASVKLSCKASGYTFTSYGISWVKQRTGQALEWIGEIYPRSGNTYYNEKFKGKATLTADKSSSTAYMELRSLTSEDSAVYFCARSGPITTLVATDYGMDYWGQGTSVTVSS VL: DIVLTQSPASLAVSLGQRATISCRASKSVSTSSYSYMHWYQQKPGQPPKLLIKFASNLESGVPARFSGSGSGTDFTLNIHPVEEEDAATYYCQHSREFPYTFGGGTKLEIK ; retrieve measured mouse B lymphocyte proliferation (OD450 nm), antibody 0 nM.
2100 OD450 nm
